# System: MALME-3M melanoma
# test protocol: NCI-60 one-dose screen, 48 h (100 = growth as untreated, 0 = no growth, -100 = all killed)
# measurement setup: 10 µM unless noted
The panel holds about 83,000 compounds, 20% with a hit somewhere; the sample as a whole holds those more often. Activity calls are given as the source filed them. How the source made its calls: active means growth percent below 10; inactive means the rest.
measured endpoint: growth

Sample records with growth:
Output growth of CCOC(=O)c1cc(C#N)n2ncc3ccccc3c12 102% (inactive)

Provide growth value for the following compound: Cc1cnc([C@]23CC[C@@H](C)[C@H](C)[C@H]2C2=CC[C@@H]4[C@@]5(C)Cc6c([nH]c7ccccc67)C(C)(C)[C@@H]5CC[C@@]4(C)[C@]2(C)CC3)o1 59.1% [100 µM] (inactive)

Report growth for O=C(Nc1cccc(C2=NCCN2)c1)c1cccc(C(=O)Nc2cccc(C3=NCCN3)c2)c1 97.1% (inactive)

Indicate its recorded growth; the compound in question is Nc1nc(Nc2ccccc2)c2ncn(Cc3ccc4c(c3)OCO4)c2n1 53% (inactive)

Determine its reported growth: C[n+]1c(-c2ccccc2)c2cc(N)ccc2c2ccccc21 -19.5% (active)

More entries:
Name the recorded growth of the compound listed here: C#CCNC(=O)CC[C@@H](C)[C@H]1CC[C@H]2[C@@H]3CC[C@@H]4CC(=O)CC[C@]4(C)[C@H]3CC[C@]12C -82.2% [100 µM] (active)

Answer with the recorded growth for the compound listed here: O=C1/C(=C/c2ccc(OCc3ccccc3)cc2)Oc2cc(OCCN3CCCCC3)ccc21 67.8% (inactive)

Quote growth reported for CC1(C)CC[C@]2(C(N)=O)CC[C@]3(C)C(=CC[C@@H]4[C@@]5(C)C/C(=C/c6cccnc6)C(=O)C(C)(C)[C@@H]5CC[C@]43C)[C@@H]2C1 please. -75.9% [100 µM] (active)

Give the value of growth reported for the following: O=C(NNc1ccc(-c2ccccc2)nn1)c1ccccc1 100% (inactive)

Consider the compound C=CCCCCOc1ccccc1-c1cnc(OCCCCC=C)n1C and give its recorded growth. 62.8% (inactive)

For the compound N#CC1C(=O)NC(c2ccccc2[N+](=O)[O-])c2sc3c(F)cccc3c21 (centres undefined) , report growth. 74.7% (inactive)

Give the value of growth reported for the following: COc1ccc2nc3c(cc2c1)C(=O)CC(C(F)(F)F)C3 (centres undefined) 49.6% (inactive)
